Tested on: Escherichia coli
Settings: Concentration 20 uM; ASSAY_TEST Inhibition of Bacterial Growth; detection method Absorption (OD600); MEDIA CAMHB; plate type 384well; NBS; CORNING #3640; time 18 hr
Description: Antibacterial activity against Escherichia coli ATCC 25922 (CO-ADD:GN_001); MIC in CAMBH media using NBS plates, by OD(600)
Potency and affinity values are given separately.
OBSERVED PROPERTY: Inhibition (%)
Your answer should be a plain number; it is taken to be in %.

CCOC(=O)C1=C(C)NC(C)=C(C(=O)OC)C1c1cccc(Cl)c1Cl (centres undefined) yielded Inhibition of 4.41

CC(N/C(=N\C#N)Nc1ccncc1)C(C)(C)C.O (centres undefined) yielded Inhibition of -6.33

COc1cc(OC)c(C(=O)CCCN2CCCC2)c(OC)c1.Cl yielded Inhibition of 2.85

OCCN1C[C@H](O)[C@@H](O)[C@H](O)[C@H]1CO yielded Inhibition of 5.82
